Parameter pIC50: see the listing below.
# TARGET_UNDER_TEST: DNA-directed RNA polymerase I subunit RPA1 (Homo sapiens, UniProt O95602)
# Sequence (O95602 whole entry): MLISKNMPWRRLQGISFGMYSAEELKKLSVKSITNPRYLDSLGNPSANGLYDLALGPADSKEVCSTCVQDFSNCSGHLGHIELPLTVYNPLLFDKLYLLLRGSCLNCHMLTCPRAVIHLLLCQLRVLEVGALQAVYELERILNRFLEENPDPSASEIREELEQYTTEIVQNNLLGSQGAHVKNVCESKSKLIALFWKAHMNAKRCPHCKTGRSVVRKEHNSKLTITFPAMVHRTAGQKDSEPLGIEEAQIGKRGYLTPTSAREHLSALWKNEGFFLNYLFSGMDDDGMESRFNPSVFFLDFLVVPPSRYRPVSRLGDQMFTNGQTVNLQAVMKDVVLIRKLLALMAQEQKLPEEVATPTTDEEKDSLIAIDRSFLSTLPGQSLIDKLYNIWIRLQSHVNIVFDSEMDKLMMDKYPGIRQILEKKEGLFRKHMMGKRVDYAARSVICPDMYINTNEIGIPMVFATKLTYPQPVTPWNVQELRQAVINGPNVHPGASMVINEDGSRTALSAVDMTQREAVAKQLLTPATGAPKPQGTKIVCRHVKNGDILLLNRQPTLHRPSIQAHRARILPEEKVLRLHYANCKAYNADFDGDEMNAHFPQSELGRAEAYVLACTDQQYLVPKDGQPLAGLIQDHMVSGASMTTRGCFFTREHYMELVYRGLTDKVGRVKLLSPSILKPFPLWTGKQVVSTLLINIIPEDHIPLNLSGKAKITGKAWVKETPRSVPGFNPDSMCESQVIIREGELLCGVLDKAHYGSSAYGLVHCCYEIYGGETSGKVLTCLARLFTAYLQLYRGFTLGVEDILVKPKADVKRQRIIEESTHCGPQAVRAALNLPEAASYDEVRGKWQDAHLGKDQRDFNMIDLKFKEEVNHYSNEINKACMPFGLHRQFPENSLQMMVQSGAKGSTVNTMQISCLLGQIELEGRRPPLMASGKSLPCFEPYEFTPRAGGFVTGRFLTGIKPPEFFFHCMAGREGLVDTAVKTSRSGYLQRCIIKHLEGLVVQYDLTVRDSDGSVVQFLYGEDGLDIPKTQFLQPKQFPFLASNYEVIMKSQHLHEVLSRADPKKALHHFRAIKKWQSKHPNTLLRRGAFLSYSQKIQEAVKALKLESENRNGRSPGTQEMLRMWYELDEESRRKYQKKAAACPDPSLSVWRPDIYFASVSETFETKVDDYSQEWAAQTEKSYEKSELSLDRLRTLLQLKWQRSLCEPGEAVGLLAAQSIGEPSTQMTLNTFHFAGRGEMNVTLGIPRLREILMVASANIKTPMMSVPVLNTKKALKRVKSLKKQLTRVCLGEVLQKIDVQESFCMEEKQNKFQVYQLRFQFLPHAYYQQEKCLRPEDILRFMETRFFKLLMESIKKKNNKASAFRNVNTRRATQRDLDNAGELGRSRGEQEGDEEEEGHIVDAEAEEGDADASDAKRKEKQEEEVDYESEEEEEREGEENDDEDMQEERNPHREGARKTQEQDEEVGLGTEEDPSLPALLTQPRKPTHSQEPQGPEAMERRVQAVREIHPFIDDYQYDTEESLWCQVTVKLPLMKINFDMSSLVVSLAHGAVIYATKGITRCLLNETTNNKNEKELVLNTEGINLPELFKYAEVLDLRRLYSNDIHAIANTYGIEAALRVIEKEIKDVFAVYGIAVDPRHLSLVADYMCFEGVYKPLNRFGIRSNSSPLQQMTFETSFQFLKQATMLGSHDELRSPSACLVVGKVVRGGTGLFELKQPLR
# METHOD: Inhibition of RNA polymerase 1 in human A-375 assessed as RPA194 degradation measured after 3 hrs by Hoechst 33342 staining based assay
pIC50: −log10 of the molar value.

Example compounds with recorded pIC50:
given_smiles=CNCCNC(=O)c1cccn2c(=O)c3ccc4ccccc4c3nc12 reported_metric=pIC50 value_observed=6.33
given_smiles=O=C(NCCN1CCCC1)c1cccn2c(=O)c3c(ccc4ccccc43)nc12 reported_metric=pIC50 value_observed="< 5.00"
given_smiles=O=C(NCCN1CCC(F)(F)CC1)c1cccn2c(=O)c3cc4ccccc4cc3nc12 reported_metric=pIC50 value_observed="< 5.00"
given_smiles=O=C(NCCN1CCCC1)c1cccn2c(=O)c3cc4c(cc3nc12)OCO4 reported_metric=pIC50 value_observed=6.27

// lookup pIC50 for `O=C(NC1CNC1)c1cccn2c(=O)c3ccc4ccccc4c3nc12` < 5.00

May I ask what pIC50 has been recorded for `O=C(NCCN1CCS(=O)(=O)CC1)c1cccn2c(=O)c3cc4ccccc4cc3nc12` ? < 5.00

Form field: reported pIC50 of `O=C(NCCN1CCCC(F)(F)C1)c1cccn2c(=O)c3cc4ccccc4cc3nc12` < 5.00
